ASSAY NOTES: Pharmacokinetic assay in vivo
PARTICULARS: C57BL/6, mouse, plasma, iv, 40 mg/kg
Where no end group is shown, it is not given here.
REPORTED ENDPOINT: Cmax (ng/mL)
Field format: number, assumed ng/mL, no unit text.

query: Item AWSATWSNYWRH [pep-20] : provide Cmax
result: 33600

###

SUBJECT OF TEST: human CD47-IgV-Domain protein (Homo sapiens, UniProt Q08722)
Construct: Human or mouse CD47-IgV-Domain proteins were labeled with NT-647 dye
Sequence (Q08722 19-127 limits assumed): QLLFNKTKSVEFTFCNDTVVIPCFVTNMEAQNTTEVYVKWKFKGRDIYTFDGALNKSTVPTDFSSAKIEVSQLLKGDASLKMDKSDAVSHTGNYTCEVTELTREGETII
ASSAY NOTES: MST binding assay to human CD47-IgV-Domain protein
PARTICULARS: human CD47-IgV-Domain protein, figure 1A, read-out: KD, pep-20/hCD47
Where no end group is shown, it is not given here.
REPORTED ENDPOINT: pKd
Expect pKd as a plain number equal to -log10 of the molar concentration.

query: Output pKd of AWSATWSNYWRH [pep-20]
result: 5.54

Data provenance is paper PMC7537338.
